TEST_PROTOCOL: Gelling of water-immiscible cosmetic liquids in 96 well glass micro-titre plate
Assay type: physicochemical
Parameters: key: gel; g4: gel after overnight (18 hrs) storage at 4° C.; g22: gel after overnight (18 hrs) storage at 22° C.; sg: soft gel; sg22: soft gel after overnight (18 hrs) storage at 22° C.; solution; *: the test at 4° C. was not carried out
REPORTED_CONDITIONS: 5% cellobiose ester in DC556

| COMPOUND | gelling of DC556 |
| --- | --- |
| CCCCCCCCCC(=O)OCC1OC(OC2C(COC(=O)CCCCCCCCC)OC(OC(=O)CCCCC)C(OC(=O)CCCCCCCCC)C2OC(=O)CCCCCCCCC)C(OC(=O)CCCCCCCCC)C(OC(=O)CCCCCCCCC)C1OC(=O)CCCCCCCCC (mixture of isomers) | gel |
| CCCCCCCCC(=O)OCC1OC(OC2C(COC(=O)CCCCCCCC)OC(OC(C)=O)C(OC(=O)CCCCCCCC)C2OC(=O)CCCCCCCC)C(OC(=O)CCCCCCCC)C(OC(=O)CCCCCCCC)C1OC(=O)CCCCCCCC (mixture of isomers) [Ex 1.5] | g22 |
